The reported measurements were obtained from the supplement of paper PMC3545927.

Biological target: furin, P09958;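 also: purified furin at 1:10 enzyme:substrate in 50 mM HEPES pH 7.5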
Sequence (P09958 whole entry): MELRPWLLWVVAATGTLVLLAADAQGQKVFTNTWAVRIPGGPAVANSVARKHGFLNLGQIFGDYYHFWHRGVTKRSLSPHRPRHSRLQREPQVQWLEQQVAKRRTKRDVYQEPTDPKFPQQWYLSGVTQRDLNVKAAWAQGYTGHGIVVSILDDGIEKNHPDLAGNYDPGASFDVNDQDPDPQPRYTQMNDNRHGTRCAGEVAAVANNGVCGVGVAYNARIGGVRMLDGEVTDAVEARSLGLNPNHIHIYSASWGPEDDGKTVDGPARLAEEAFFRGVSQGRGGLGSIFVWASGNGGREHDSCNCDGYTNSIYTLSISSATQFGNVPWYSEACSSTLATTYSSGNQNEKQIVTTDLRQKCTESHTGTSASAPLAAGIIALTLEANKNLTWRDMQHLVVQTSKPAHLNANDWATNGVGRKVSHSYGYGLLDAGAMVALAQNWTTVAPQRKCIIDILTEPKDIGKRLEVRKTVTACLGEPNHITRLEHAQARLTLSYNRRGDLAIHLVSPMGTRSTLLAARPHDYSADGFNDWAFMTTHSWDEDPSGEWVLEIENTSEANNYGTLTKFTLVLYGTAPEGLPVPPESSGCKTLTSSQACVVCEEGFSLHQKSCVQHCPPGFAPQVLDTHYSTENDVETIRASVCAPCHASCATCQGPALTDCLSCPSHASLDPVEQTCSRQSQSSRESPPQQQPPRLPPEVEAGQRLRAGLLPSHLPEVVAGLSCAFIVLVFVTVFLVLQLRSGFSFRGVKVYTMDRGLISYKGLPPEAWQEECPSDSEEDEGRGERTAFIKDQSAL
Experiment: furin cleavage Z-score vs untreated control; higher = more cleavage, active = 3.5 or more, inactive = 1 or less, 8 variable residues between constant flanks
Settings: 15 min
The list shows a part of the results. The hit rate among all sequences tested is not known here.
Reported furin cleavage Z-score is given for each of the following sequences.
Simply state the number, no unit and no words.

Check out these entries, answers already filled in.
Prompt line: Please supply the value of reported furin cleavage Z-score for the item CATFPINAYTAGNASASA [HC1190]
Response line: -1.04

Prompt line: Give the value of furin cleavage Z-score reported for the following: CARRHVGPGEAGNASASA [HC1112]
Response line: -0.961

Prompt line: Give a short answer stating reported furin cleavage Z-score for CASYANGSGPAGNASASA [HC397] .
Response line: -1.07

Moving on to the next sequence.
Prompt line: For the sequence CAFFSVLIARAGNASASA [HC1585] , report furin cleavage Z-score.
Response line: -0.777
